Where do the numbers come from? From paper PMC4474499.

Target: T1, human TLR1 protein, purified extracellular domain (human, UniProt Q15399 25-580)
T1 sequence (looked up): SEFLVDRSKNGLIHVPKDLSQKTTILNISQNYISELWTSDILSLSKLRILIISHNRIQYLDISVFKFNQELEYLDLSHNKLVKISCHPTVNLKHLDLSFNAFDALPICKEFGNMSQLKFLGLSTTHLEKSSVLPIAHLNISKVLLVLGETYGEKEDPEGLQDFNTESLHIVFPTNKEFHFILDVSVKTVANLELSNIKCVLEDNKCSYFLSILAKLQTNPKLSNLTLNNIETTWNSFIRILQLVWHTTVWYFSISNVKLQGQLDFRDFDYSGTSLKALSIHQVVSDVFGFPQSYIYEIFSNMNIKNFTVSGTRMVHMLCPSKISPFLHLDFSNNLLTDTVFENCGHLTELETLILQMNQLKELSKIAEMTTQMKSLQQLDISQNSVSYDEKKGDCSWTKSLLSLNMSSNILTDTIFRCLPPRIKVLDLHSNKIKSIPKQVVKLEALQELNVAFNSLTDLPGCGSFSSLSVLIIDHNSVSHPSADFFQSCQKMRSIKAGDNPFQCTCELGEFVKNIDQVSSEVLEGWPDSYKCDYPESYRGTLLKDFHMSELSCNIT
Experiment: fluorescence polarisation
Non-standard residues stand in square brackets, D forms with d. No end group written: not given here. Pam3Cys = Cys carrying the Pam3 acyl chains of Pam3CSK4
VALUE_TYPE: Kd
Answer format: value, then unit.

# get_value(readout='Kd', item= [Pam3Cys]SKKKK (also: rhodamine label, site not given here) [rhodamine-labeled Pam3CSK4] )
41.6 nM
